These measurements were taken from the supplement of paper PMC10567573.

B1: FBF1 (parent)
chain: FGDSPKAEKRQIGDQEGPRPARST

# Variants of: B1
# TEST SUMMARY: protein stability index of a GFP-peptide fusion (GPS, HEK-293T) (PSI 1-6); higher = more stable;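 note: lentivirally expressed fusions sorted by FACS into six bins by GFP to DsRed ratio, PSI derived from sequencing read proportions per bin multiplied by bin number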
# CONDITIONS USED: c terminus: a fixed tail appended
Please note: met applies when protein stability index is 5 or greater, and not met applies otherwise.

| MONOMER SEQUENCE | CLASSIFICATION |
| --- | --- |
| FGDSPKAEKRQIGDQELPRPARST [G17L] | not met |
| FGDSPKAEKRQIGDQEGTRPARST [P18T] | not met |
| FGDSPKAEKRQIGDQEGPRPARNT [S23N] | met |
| FGDSPKAEKRQIGDQEGPRPARSM [T24M] | not met |
| FGDMPKAEKRQIGDQEGPRPARST [S4M] | not met |
| FGDSPKAEKRNIGDQEGPRPARST [Q11N] | met |
| FGDSPKAEKRQIGDQEGPRPARSY [T24Y] | not met |
| FGDSPKAEKAQIGDQEGPRPARST [R10A] | met |
| SGDSPKAEKRQIGDQEGPRPARST [F1S] | met |
| FGDSPKVEKRQIGDQEGPRPARST [A7V] | not met |
| FGDSPAAEKRQIGDQEGPRPARST [K6A] | met |
| FGDSPKATKRQIGDQEGPRPARST [E8T] | not met |
| FGDSPKAIKRQIGDQEGPRPARST [E8I] | not met |
| FGDSPKAEKRQCGDQEGPRPARST [I12C] | not met |
| FGDSPKAEKRQIGDQEGPRPARSE [T24E] | met |
| FGDSPKAEKRQIGDQESPRPARST [G17S] | met |
| FGDSPKAEKRQIGDQEGKRPARST [P18K] | met |
| FVDSPKAEKRQIGDQEGPRPARST [G2V] | not met |
| FGDSCKAEKRQIGDQEGPRPARST [P5C] | not met |
